Hey, just so you know, these numbers are from paper PMC12396409.

- System: T. gondii RH strain (RH-Tub-eYFP) tachyzoites
- test: microbe, parasite or virus in culture
- Type: cell-based, Toxoplasma gondii
- run.conditions: Toxoplasma gondii, 72 h, T. gondii, 72 h, screen at 2 μg/mL, replicate 1; read-out: Tg_72h_%Growth_Rep1
Can you tell me percent parasite growth at 2 µg/mL for the items I'm about to list?
Quick note: give the figure in %, leave out the unit.

Q. What does the data say about its percent parasite growth at 2 µg/mL? Entry: COc1c(CC(C)O)c2c3c(CC(C)O)c(OC)c(=O)c4c(O)cc5c(c6c(cc(O)c(c1=O)c62)OCO5)c43 (stereo not shown)
A. 4.15

Q. What does the data say about its percent parasite growth at 2 µg/mL? Entry: C[C@H]1CCCC(=O)CCCCCc2cc(O)cc(O)c2C(=O)O1
A. 97

Q. What does the data say about its percent parasite growth at 2 µg/mL? Entry: CC(=O)c1c(O)c(C)c(O)c2c1OC1=CC(=O)C(C(C)=O)C(=O)C12C (stereo not shown)
A. 115

Q. What does the data say about its percent parasite growth at 2 µg/mL? Entry: Nc1ncnc2c1ncn2[C@@H]1O[C@H](CO)C[C@H]1O [Cordycepin]
A. 80

Q. What does the data say about its percent parasite growth at 2 µg/mL? Entry: CC[C@H]1OC(=O)[C@H](C)C(=O)[C@H](C)[C@@H](O[C@@H]2O[C@H](C)C[C@H](N(C)C)[C@H]2O)[C@](C)(OC)C[C@@H](C)C(=O)[C@H](C)[C@H]2N(CCCCn3cnc(-c4cccnc4)c3)C(=O)O[C@]12C
A. 56.9

Q. What does the data say about its percent parasite growth at 2 µg/mL? Entry: C=C[C@]1(C)C[C@@H](OC(=O)CSC(C)(C)CNC(=O)[C@H](N)C(C)C)[C@]2(C)[C@H](C)CC[C@]3(CCC(=O)[C@H]32)[C@@H](C)[C@@H]1O [Valnemulin, reference compound]
A. 13.1

Q. What does the data say about its percent parasite growth at 2 µg/mL? Entry: CN(C)[C@@H]1C(O)=C(C(N)=O)C(=O)[C@@]2(O)C(O)=C3C(=O)c4c(O)ccc(Cl)c4[C@@H](O)[C@H]3C[C@@H]12
A. 157

====

- System: P. falciparum 3D7 parasites
- test: P. falciparum growth inhibition assay, 2-cycle (120 h treatment), delayed-death screen and dose-response
- Assay type: cell-based, Plasmodium falciparum
- run.conditions: Plasmodium falciparum, 3D7; P. falciparum, 120 h, parasite screen 2 μg/mL, % growth, replicate 2; read-out: Pf_120h_%Growth_Rep2
Can you tell me activity at 2 µg/mL for the items I'm about to list?
Write the numeric value and follow it with the unit.

Q. What does the data say about its activity at 2 µg/mL? Entry: Cc1cc(O)c2c(c1)C(=O)c1c(c(O)cc(O)c1-c1c(O)cc(O)c3c1C(=O)c1cc(C)cc(O)c1C3=O)C2=O
A. 137%

Q. What does the data say about its activity at 2 µg/mL? Entry: CC/C=C\[C@H](O)[C@H](O)C1=C(C)C(=O)[C@]2(O1)C(=O)N[C@@](OC)(C(=O)c1ccccc1)[C@@H]2O
A. 139%

Q. What does the data say about its activity at 2 µg/mL? Entry: COC(=O)c1cc(O)cc(OC)c1C(=O)c1c(O)cc(C)cc1O
A. 96.4%

Q. What does the data say about its activity at 2 µg/mL? Entry: CC1(C)C[C@]23[C@@H]4COC(=O)[C@H]2CC[C@H]1[C@@H]3CC4=O
A. 13.5%

Q. What does the data say about its activity at 2 µg/mL? Entry: CO[C@H]1[C@H](O)[C@@H](O)[C@H](n2c3c(Cl)cccc3c3c4c(c5c6cccc(Cl)c6[nH]c5c32)C(=O)NC4=O)O[C@@H]1CO
A. 14.5%

Q. What does the data say about its activity at 2 µg/mL? Entry: CC1(C)CCC[C@]2(C)[C@@H](C=O)C(C=O)=CC[C@@H]12
A. 28.5%

Q. What does the data say about its activity at 2 µg/mL? Entry: COc1ccc(C[C@H](N)C(=O)N[C@H]2[C@@H](O)[C@H](n3cnc4c(N(C)C)ncnc43)O[C@@H]2CO)cc1
A. 7.14%

Q. What does the data say about its activity at 2 µg/mL? Entry: C/C(=C\C(=O)OCCCCCCCCC(=O)O)C[C@@H]1OC[C@H](C[C@@H]2O[C@H]2[C@@H](C)[C@H](C)O)[C@@H](O)[C@H]1O
A. 28.1%

Q. What does the data say about its activity at 2 µg/mL? Entry: C=C[C@]1(C)C[C@@H](OC(=O)CS[C@@H]2C[C@H]3CC[C@@H](C2)N3C)[C@]2(C)[C@H](C)CC[C@]3(CCC(=O)[C@H]32)[C@@H](C)[C@@H]1O [Retapamulin, reference compound]
A. 3.58%

Q. What does the data say about its activity at 2 µg/mL? Entry: Nc1ncnc2c1ncn2[C@@H]1O[C@H](C[C@@H](N)CC[C@H](N)C(=O)O)[C@@H](O)[C@H]1O [sinefungin, reference compound]
A. -3.05%

Q. What does the data say about its activity at 2 µg/mL? Entry: Cc1cc(O)c2c(c1)O[C@@]1(C)CC[C@H]3C(C)(C)CCC[C@]34CO[C@@H]2[C@H]41
A. 114%

Q. What does the data say about its activity at 2 µg/mL? Entry: CC1(C)[C@H](C(=O)O)N2C(=O)C[C@H]2S1(=O)=O [Sulbactam sodium]
A. 104%

Q. What does the data say about its activity at 2 µg/mL? Entry: COc1cc(C)c2c(c1C=O)Oc1c(c(C)c(O)c3c1C(O)OC3=O)OC2=O (centres unmarked)
A. 87.2%

Q. What does the data say about its activity at 2 µg/mL? Entry: O=C(O)c1ccc[nH]1
A. 136%

====

Can you tell me Pf_72h_%Growth_Rep1 for the items I'm about to list?
- System: P. falciparum 3D7 parasites
- test: P. falciparum growth inhibition assay, 1-cycle (72 h treatment), SYBR DNA staining (library screen at 2 μg/mL and dose-response)
- Type: cell-based, Plasmodium falciparum
- run.conditions: P. falciparum 3D7, 72 h, library screen at 2 μg/mL, % growth, replicate 1
Quick note: give the figure in %, leave out the unit.

Q. GET /values?readout=Pf_72h_%Growth_Rep1&system=P. falciparum 3D7 parasites&item= COc1cc(C)c2c(OC)cc(=O)oc2c1-c1c(OC)cc(C)c2c(OC)cc(=O)oc12 [BIA-K1634]
A. 79.71

Q. GET /values?readout=Pf_72h_%Growth_Rep1&system=P. falciparum 3D7 parasites&item= COc1ccc(/C=C/C(=O)O)cc1O [BIA-I1729]
A. 80.53

Q. GET /values?readout=Pf_72h_%Growth_Rep1&system=P. falciparum 3D7 parasites&item= CCCCCC(O)C1C(=O)OC(C)C(O)C=CC=CC=CC=CC=C(C)C(O)C(O)C(O)CC(O)CC(O)CC(O)CC(O)CC1O (stereo not drawn) [BIA-L1613]
A. 78.48

====

- Test system: P. falciparum 3D7 parasites
- test: P. falciparum growth inhibition assay, 2-cycle (120 h treatment), delayed-death screen and dose-response
- Format: cell-based, Plasmodium falciparum
- run.conditions: P. falciparum, 120 h, parasite screen 2 μg/mL, % growth, replicate 2
quantity.measured: Pf_120h_%Growth_Rep2 (%)
Quick note: give the figure in %, leave out the unit.

Q. What does the data say about its Pf_120h_%Growth_Rep2? Entry: CO[C@@H]1[C@@H](O[C@@H]2O[C@H](C)[C@@H](O[C@H]3C[C@@](C)(O)[C@@H](O)[C@H](C)O3)[C@H](N(C)C)[C@H]2O)[C@@H](CC=O)C[C@@H](C)[C@@H](O[C@H]2CC[C@H](N(C)C)[C@@H](C)O2)/C=C/C=C/C[C@@H](C)OC(=O)C[C@H]1O [Spiramycin I, reference compound]
A. 8.16

Q. What does the data say about its Pf_120h_%Growth_Rep2? Entry: CO[C@@H]1[C@H](N(C)C(=O)c2ccccc2)C[C@H]2O[C@]1(C)n1c3ccccc3c3c4c(c5c6ccccc6n2c5c31)C(=O)NC4=O [Stauprimide]
A. 11.28

Q. What does the data say about its Pf_120h_%Growth_Rep2? Entry: CCO[C@@H]1[C@@H](OC)[C@H](C)O[C@@H](O[C@H]2C[C@H]3[C@@H]4C=C5C(=O)[C@H](C)[C@@H](O)CCC[C@H](CC)OC(=O)C[C@H]5[C@@H]4C=C(C)[C@@H]3C2)[C@@H]1OC [spinosyn L 17-pseudoaglycone, 3'-Ethoxy-]
A. 1.27

Q. What does the data say about its Pf_120h_%Growth_Rep2? Entry: COc1c(O)cc2cc(C)oc(=O)c2c1O
A. 4.83

====

Can you tell me Tg_72h_%Growth_Rep2 for the items I'm about to list?
- Tested on: T. gondii RH strain (RH-Tub-eYFP) tachyzoites
- test: microbe, parasite or virus in culture
- Assay type: cell-based, Toxoplasma gondii
- run.conditions: library screen at 2 μg/mL, 72 h, % growth, replicate 2
Quick note: give the figure in %, leave out the unit.

Q. What does the data say about its Tg_72h_%Growth_Rep2? Entry: C=C1CC[C@H]2C(C)(C)CCC[C@]2(C)[C@H]1C[C@@]12C[C@H]3C(=O)N[C@@H](CC(C)C)C(=O)N3[C@@H]1Nc1ccccc12 [Drimentine A]
A. 80.15

Q. What does the data say about its Tg_72h_%Growth_Rep2? Entry: COc1c(OC)c(-c2c[nH]c3ccccc23)c(OC)c(OC)c1-c1c[nH]c2ccccc12 [Asterriquinol D dimethylether]
A. 89.90

Q. What does the data say about its Tg_72h_%Growth_Rep2? Entry: COc1cc2c3c(c1O)-c1c(cc(O)c(OC)c1OC)CCC3N(C)CC2 (stereo not drawn) [Floramultine]
A. 93.93

Q. What does the data say about its Tg_72h_%Growth_Rep2? Entry: CC[C@]1(C)C[C@@H](OC(=O)CO)C2(C)[C@H](C)CCC3(CCC(=O)[C@H]32)[C@@H](C)[C@@H]1O (stereo partly drawn) [Dihydropleuromutilin]
A. 63.68

Q. What does the data say about its Tg_72h_%Growth_Rep2? Entry: CCCCCC(=O)C(CCCC)c1oc(=O)c(CCCC)c(O)c1CCCC (stereo not drawn) [Elasnin]
A. 75.71

Q. What does the data say about its Tg_72h_%Growth_Rep2? Entry: C[C@H]1CC[C@H]2[C@@H](C=C[C@@H]3[C@H]4[C@@H](C)O[C@]5(O)[C@@H](CO)N(C)C(=O)[C@]45C(=O)[C@@]32C)C1 [Fusarisetin A]
A. 97.52

Q. What does the data say about its Tg_72h_%Growth_Rep2? Entry: CO[C@H]1/C=C/C=C/C=C/C[C@H](OC(=O)[C@@H](C)NC(=O)C2CCCCC2)[C@H](C)[C@@H](O)/C(C)=C\CCC2=CC(=O)C=C(NC(=O)C1)C2=O [Ansatrienin A]
A. 44.79

Q. What does the data say about its Tg_72h_%Growth_Rep2? Entry: CCCC[C@@H](C)[C@@H](OC(=O)C[C@@H](CC(=O)O)C(=O)O)[C@H](C[C@@H](C)CCCCCC[C@@H](O)C[C@H](O)[C@H](C)N)OC(=O)C[C@@H](CC(=O)O)C(=O)O [Fumonisin B2]
A. 95.97

Q. What does the data say about its Tg_72h_%Growth_Rep2? Entry: Cc1c2c(c(O)c3c(O)cccc13)C(=O)[C@]1(O)C(O)=C(C(N)=O)C(=O)[C@H](N(C)C)[C@@H]1C2.Cl [Epianhydrotetracycline hydrochloride]
A. 109.09

Q. What does the data say about its Tg_72h_%Growth_Rep2? Entry: CCC(=O)Nc1c2sscc-2n(C)c1=O [Aureothricin]
A. 1.43

Q. What does the data say about its Tg_72h_%Growth_Rep2? Entry: Cc1cc(=O)c(O)cc2c1C[C@@H]1CC(C)(C)/C=C/C[C@@]3(C)Oc4cc(O)c(=O)cc(C)c4C[C@@H]3C[C@@H](O)[C@]1(C)O2 [Eupenifeldin]
A. 1.71

Q. What does the data say about its Tg_72h_%Growth_Rep2? Entry: CC[C@H](C)[C@H]1O[C@]2(C=C[C@@H]1C)C[C@@H]1C[C@@H](C/C=C(\C)[C@@H](O[C@H]3C[C@H](OC)[C@@H](O[C@H]4C[C@H](OC)[C@H](NC)[C@H](C)O4)[C@H](C)O3)[C@@H](C)/C=C/C=C3\CO[C@@H]4[C@H](O)C(C)=C[C@@H](C(=O)O1)[C@]34O)O2 [Emamectin B1a]
A. 92.26

Q. What does the data say about its Tg_72h_%Growth_Rep2? Entry: CC1=CC[C@H]2C(C)(C)CCC[C@]2(C)[C@H]1CO [Drimenol]
A. 98.02

Q. What does the data say about its Tg_72h_%Growth_Rep2? Entry: CC(C)C[C@H]1C(=O)O[C@H](C(C)C)C(=O)N(C)[C@@H](CC(C)C)C(=O)O[C@H](C(C)C)C(=O)N(C)[C@@H](CC(C)C)C(=O)O[C@H](C(C)C)C(=O)N(C)[C@@H](CC(C)C)C(=O)O[C@H](C(C)C)C(=O)N1C [Bassianolide]
A. 93.64

Q. What does the data say about its Tg_72h_%Growth_Rep2? Entry: CCCCCCCCCCCC(=O)N[C@H]1CCOC1=O [Dodecanoyl-L-homoserine lactone]
A. 103.60

Q. What does the data say about its Tg_72h_%Growth_Rep2? Entry: CC[C@H]1OC(=O)[C@H](C)[C@@H](O[C@H]2C[C@@](C)(OC)[C@@H](O)[C@H](C)O2)[C@H](C)[C@@H](O[C@@H]2O[C@H](C)C[C@H](N(C)C)[C@H]2O)[C@](C)(O)C[C@@H](C)C(=O)[C@H](C)[C@@H](O)[C@]1(C)O [Erythromycin A]
A. 44.08

Q. What does the data say about its Tg_72h_%Growth_Rep2? Entry: CC(=O)O[C@@H]1C[C@]2(C)[C@@]3(CO)[C@H](O)C(=O)C(C)=C[C@H]3O[C@H]1[C@@]21CO1 [Acetyldeoxynivalenol, 3-]
A. 6.65

Q. What does the data say about its Tg_72h_%Growth_Rep2? Entry: COC12c3c(C)cc(O)c4c(=O)occ(c34)C(=O)C1C13COC(=O)c4c(O)cc(C)c(c41)C(=O)C2C3OC(C)=O (stereo not drawn) [Duclauxin]
A. 92.65
